- system-name: Peregrin (Homo sapiens)
- assay-context: Compound concentration 20.0 uM
Reported values of ΔTm for individual entries
// units = °C; emit number, no label

Here is how some molecules turned out for ΔTm.
[[record]]
molecule = "COc1ccc(C2C(C#N)=C(N)OC3=C2C(=O)CC(c2cccc4ccccc24)C3)cc1 (stereo unspecified)"
system_name = "Peregrin (Homo sapiens)"
observation_type = "ΔTm"
observed_result = 0.11

[[record]]
molecule = "O=C(c1cc(Cc2n[nH]c(=O)c3ccccc23)ccc1F)N1CC(CNC2CC2)C1"
system_name = "Peregrin (Homo sapiens)"
observation_type = "ΔTm"
observed_result = -0.32


Provide only the value of recorded ΔTm for COc1cc(O)c2c(c1)/C=C\C[C@H](O)[C@H](O)C(=O)/C=C\C[C@H](C)OC2=O
-1.29

Supply ΔTm value. Item: CS(=O)(=O)n1cc2c(n1)CN([C@H]1CO[C@H](c3cc(F)ccc3F)[C@@H](N)C1)C2
1.17

// Input: COc1ccccc1[C@H]1[C@H](C(=O)O)[C@H](c2ccccc2OC)[C@H]1C(=O)Oc1cccc2ccccc12 . Output its ΔTm only.
0.27

Output measured ΔTm for this item: COc1cc2c(NC3CCN(CC4CCCCC4)CC3)nc(N3CCCN(C(C)C)CC3)nc2cc1OCCCN1CCCCC1
-0.98

Return ΔTm for the following molecule: CCCCCn1c(C)c(C(=O)c2cccc3ccccc23)c2ccccc21
2.08

State its ΔTm: N#Cc1cc2cc(CN3CCC(Nc4ncnc5sc(CC(F)(F)F)cc45)CC3)ccc2[nH]1
1.21

Report measured ΔTm; entry is CN1[C@@H]2CC[C@H]1C[C@@H](OC(c1ccc(F)cc1)c1ccc(F)cc1)C2
-0.08

Report ΔTm, nothing else, for this molecule: COc1nc(Nc2cc(S(C)(=O)=O)ccc2N[C@@H](c2cccc3c2OC(F)(F)O3)c2ncccc2Cl)nc(N2CCNCC2)n1
0

# return recorded ΔTm for entry COCCOCCn1nc2c(c1C)-c1c(Cl)ccc3c1c(C)c(C(=O)O)n3CCCOc1cc(cc3c(F)c(Cl)ccc13)CCc1cc(nn1C)CSC2
0

Hello, please tell me recorded ΔTm for this one: CS(=O)(=O)Nc1ccc(-c2coc3cc(OCc4cccc(C(=O)O)c4)ccc3c2=O)cc1
1.08

State its ΔTm: CNC(=O)O[C@H]1COc2ccc(N3CCN(C4COC4)CC3)cc2[C@@H]1NC(=O)c1ccc(F)cc1
-1.56

// fetch ΔTm given entry Cc1cnc(-c2ccccc2C(C)C)nc1NCc1ccc(-n2ccnn2)cc1
-1.14

Entry C/C(=N\NC(=O)c1cccc(S(=O)(=O)N2CCOCC2)c1)c1cc(Cl)ccc1O needs its ΔTm filled in; supply it.
2.44

# return recorded ΔTm for input O=C1C(P(=O)(O)O)CC(O)N1O (stereo unspecified)
1.52

* * *

Form field: ΔTm (one value per entry).
- system-name: Peregrin (Homo sapiens) (UniProt P55201)
- Sequence (whole entry): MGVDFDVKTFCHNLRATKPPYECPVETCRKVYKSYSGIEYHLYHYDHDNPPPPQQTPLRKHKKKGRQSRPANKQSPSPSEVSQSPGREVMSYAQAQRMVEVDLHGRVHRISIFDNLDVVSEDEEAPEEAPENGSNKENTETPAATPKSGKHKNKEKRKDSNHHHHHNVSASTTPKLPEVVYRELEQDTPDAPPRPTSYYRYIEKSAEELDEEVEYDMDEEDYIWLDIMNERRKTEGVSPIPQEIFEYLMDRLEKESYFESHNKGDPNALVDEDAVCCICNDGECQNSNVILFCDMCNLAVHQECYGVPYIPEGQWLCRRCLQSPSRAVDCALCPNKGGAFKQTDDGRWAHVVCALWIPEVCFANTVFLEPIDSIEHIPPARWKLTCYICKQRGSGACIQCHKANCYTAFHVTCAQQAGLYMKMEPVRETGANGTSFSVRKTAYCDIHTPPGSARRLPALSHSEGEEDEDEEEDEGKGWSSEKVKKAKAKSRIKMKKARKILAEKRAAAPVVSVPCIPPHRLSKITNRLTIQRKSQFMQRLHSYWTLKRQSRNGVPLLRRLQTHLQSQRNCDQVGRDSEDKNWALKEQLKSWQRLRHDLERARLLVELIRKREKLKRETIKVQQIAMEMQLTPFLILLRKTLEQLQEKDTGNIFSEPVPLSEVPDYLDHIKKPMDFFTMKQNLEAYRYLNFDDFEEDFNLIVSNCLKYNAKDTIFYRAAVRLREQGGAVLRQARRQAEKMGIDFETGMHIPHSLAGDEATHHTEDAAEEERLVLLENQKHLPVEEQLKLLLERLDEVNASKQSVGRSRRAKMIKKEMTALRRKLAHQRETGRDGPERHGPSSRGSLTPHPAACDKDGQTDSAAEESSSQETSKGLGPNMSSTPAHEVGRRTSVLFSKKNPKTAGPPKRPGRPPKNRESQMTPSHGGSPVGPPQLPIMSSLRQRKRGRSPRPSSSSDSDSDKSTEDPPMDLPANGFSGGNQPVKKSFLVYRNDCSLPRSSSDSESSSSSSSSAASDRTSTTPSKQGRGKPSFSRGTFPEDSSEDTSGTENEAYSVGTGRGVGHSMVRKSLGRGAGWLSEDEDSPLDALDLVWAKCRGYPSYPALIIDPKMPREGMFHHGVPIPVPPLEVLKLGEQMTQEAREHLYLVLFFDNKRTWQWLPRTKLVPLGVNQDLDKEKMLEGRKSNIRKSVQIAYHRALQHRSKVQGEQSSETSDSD
- assay-context: Compound concentration 20.0 uM
Use °C as the unit, but write only the number.

Below, each entry is followed by its recorded ΔTm result.
[[record]]
molecule = "C=CCn1c(N[C@@H]2C[C@H](c3ccc(OCc4ccccc4)cc3)CN(C)C2)nc2cc[nH]c2c1=O"
observation_type = "ΔTm"
observed_result = 3.96

[[record]]
molecule = "CN1CCN(c2nc(-c3ccc(C(=O)NC4(C(=O)NCC#N)CCCCC4)cc3)cs2)CC1"
observation_type = "ΔTm"
observed_result = -1.32

[[record]]
molecule = "COc1ccc(N(C(=O)Oc2c(C)cccc2C)c2ccnc(Nc3ccc(N4CCN(C)CC4)cc3)n2)c(OC)c1"
observation_type = "ΔTm"
observed_result = -1.1

[[record]]
molecule = "COc1cc2c(cc1-c1c(C)noc1C)[nH]c1nc(C)nc(-c3ccnc4ccccc34)c12"
observation_type = "ΔTm"
observed_result = 1.04

[[record]]
molecule = "c1cncc(-c2cnn[nH]2)c1"
observation_type = "ΔTm"
observed_result = 0.36

[[record]]
molecule = "CC#C[C@]1(O)CC[C@H]2[C@@H]3CCC4=CC(=O)CCC4=C3[C@@H](c3ccc(N(C)C)cc3)C[C@@]21C"
observation_type = "ΔTm"
observed_result = -2.63

[[record]]
molecule = "NC(=O)[C@H]1CCCCc2c1[nH]c1ccc(Cl)cc21"
observation_type = "ΔTm"
observed_result = 0.13

[[record]]
molecule = "CC(C)c1c(-c2cnn(C(C)(C)C)c2)[nH]c2c(C#N)cnn2c1=O"
observation_type = "ΔTm"
observed_result = 0.8


Name the recorded ΔTm of the molecule listed here: N=C(N)SCc1ccc(CN2C(=O)C(=O)c3cc(C(F)(F)F)ccc32)cc1
0.27

* * *

Measured ΔTm values are reported for all entries that follow.
- system-name: Fibroblast growth factor receptor 2 (Homo sapiens) (UniProt P21802)
- Sequence (P21802 22-821 limits assumed): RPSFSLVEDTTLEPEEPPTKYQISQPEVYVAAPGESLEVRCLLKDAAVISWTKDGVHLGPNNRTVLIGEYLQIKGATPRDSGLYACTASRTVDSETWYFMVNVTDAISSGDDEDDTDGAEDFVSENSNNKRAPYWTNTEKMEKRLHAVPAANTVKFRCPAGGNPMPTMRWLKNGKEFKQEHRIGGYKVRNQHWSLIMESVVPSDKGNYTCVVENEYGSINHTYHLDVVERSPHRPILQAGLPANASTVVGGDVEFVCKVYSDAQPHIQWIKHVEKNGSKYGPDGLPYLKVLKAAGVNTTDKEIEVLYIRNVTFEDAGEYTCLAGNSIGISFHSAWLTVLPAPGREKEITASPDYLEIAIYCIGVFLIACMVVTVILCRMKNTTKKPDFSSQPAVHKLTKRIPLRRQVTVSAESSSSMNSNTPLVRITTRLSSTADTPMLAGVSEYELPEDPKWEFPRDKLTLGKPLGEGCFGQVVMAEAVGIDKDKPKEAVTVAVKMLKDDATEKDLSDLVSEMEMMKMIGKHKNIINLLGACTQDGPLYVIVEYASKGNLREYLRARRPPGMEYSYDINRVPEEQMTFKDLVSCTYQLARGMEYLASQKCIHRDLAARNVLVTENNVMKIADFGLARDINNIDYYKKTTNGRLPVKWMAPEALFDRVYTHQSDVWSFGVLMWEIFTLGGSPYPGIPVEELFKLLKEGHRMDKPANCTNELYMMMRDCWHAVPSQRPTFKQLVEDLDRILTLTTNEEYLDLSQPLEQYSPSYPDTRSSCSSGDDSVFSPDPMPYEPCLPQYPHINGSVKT
- assay-context: Compound concentration 20.0 uM
- Description: Thermal Shift Assay. Domain: start/stop: T457-E768
The reply should contain only the number, in °C.

[[record]]
compound = "COc1ccc2c(c1)OC(C)(C)C(c1ccccc1)C2c1ccc(OCCN2CCCC2)cc1 (stereo not drawn)"
units_text = "°C"
observed_result = 0.15

[[record]]
compound = "C[C@@H](Nc1nc2c(cnn2C2CCCC2)c(=O)[nH]1)C(=O)N1CC[C@H](F)C1"
units_text = "°C"
observed_result = -0.04

[[record]]
compound = "O=C(O)C1=CCCN(CCOC(c2ccc(C(F)(F)F)cc2)c2ccc(C(F)(F)F)cc2)C1"
units_text = "°C"
observed_result = -0.15


# assay system Fibroblast growth factor receptor 2 (Homo sapiens) (UniProt P21802): give ΔTm of N[C@H]1CC[C@H](N[C@@H]2C[C@H]2c2ccccc2)CC1
0.55

Consider the compound Cc1c(F)c(N)cc(C(=O)Nc2cc(-n3cc(C(=O)NCCCN4CCOCC4)nn3)ccc2N2CCN(C)CC2)c1Cl tested on Fibroblast growth factor receptor 2 (Homo sapiens) (UniProt P21802); state its ΔTm.
0.03

Param request: ΔTm | system Fibroblast growth factor receptor 2 (Homo sapiens) (UniProt P21802) | item CC(C)[C@@H]1C(=O)N(S(C)(=O)=O)[C@@H]2CCN(C(=O)/C=C/CN3CCCCC3)[C@H]21
0.49

* * *

- system-name: Fibroblast growth factor receptor 2 (Homo sapiens) (UniProt P21802)
- assay-context: Compound concentration 20.0 uM
Category scheme (ΔTm): lo (below -0.5 °C), med (-0.5 °C to below 0.3 °C), hi (0.3 °C or more)

Before answering, review these 3 worked examples.
[[record]]
compound = "O=C(NCC1(c2nc(-c3ccccc3)cs2)CCOCC1)c1cccc(-c2noc(C(F)(F)F)n2)c1"
system_name = "Fibroblast growth factor receptor 2 (Homo sapiens) (UniProt P21802)"
category = "med"

[[record]]
compound = "CCCc1nc(C)c2c(C)nc3ccc(OC)nc3n12"
system_name = "Fibroblast growth factor receptor 2 (Homo sapiens) (UniProt P21802)"
category = "lo"

[[record]]
compound = "N#C[C@@H]1CCCN1C(=O)[C@@H]1CCCN1C(=O)CCCc1ccccc1"
system_name = "Fibroblast growth factor receptor 2 (Homo sapiens) (UniProt P21802)"
category = "hi"


Any idea which band COc1c(CN)cc(CN)cc1OCCCN1Cc2ccccc2C1 is in?
hi

Please classify: O=C(NCc1ncccc1F)c1coc(CCNCCc2nc3ccccc3[nH]2)n1
lo

Kindly state the category for this compound: C/C=C1\NC(=O)[C@H]2CSSCC/C=C/[C@H](CC(=O)N[C@H](C(C)C)C(=O)N2)OC(=O)[C@H](C(C)C)NC1=O
med

Which class does CN(CCCCCCNc1ccnc2cc(Cl)ccc12)CCCCCCNc1ccnc2cc(Cl)ccc12 fall in?
hi

Field: class (ΔTm) — entry: c1cncc(-c2cnn[nH]2)c1
hi

The entry to classify is C[C@H](c1nc2c(cnn2C2CCOCC2)c(=O)[nH]1)N1CC(Oc2ccccc2)C1 ; which class holds it?
med

Class (by measured ΔTm) for Cc1ncsc1-c1ccc(CNC(=O)[C@@H]2C[C@@H](O)CN2C(=O)[C@@H](NC(=O)COCC(C)(COCCOCCOCCNC(=O)C[C@@H]2N=C(c3ccc(Cl)cc3)c3c(sc(C)c3C)-n3c(C)nnc32)COCCOCCOCCNC(=O)C[C@@H]2N=C(c3ccc(Cl)cc3)c3c(sc(C)c3C)-n3c(C)nnc32)C(C)(C)C)cc1
lo

Which category fits this record: CC(c1cccc2ccccc12)n1cnc2c(=O)[nH]c(Cc3ccccc3)nc21 (stereo not drawn)
lo

Which ΔTm category applies to CN1CC(=O)N2[C@H](c3ccc4c(c3)OCO4)c3[nH]c4ccccc4c3C[C@@H]2C1=O here?
lo
